Target: Muscarinic acetylcholine receptor M2 (Sus scrofa)
Assay: Tested for binding of [3H]N-methylscopolamine ([3H]NMS) at porcine heart ventricle muscarinic acetylcholine receptor M2 expressed as -logKa.
Measured endpoint: -logKa

CC(C)(C)c1ccc2c(c1)C(=O)N(CCC[N+](C)(C)CCCCCC[N+](C)(C)CCCN1C(=O)c3ccc(C(C)(C)C)cc3C1=O)C2=O
7.38
Cc1ccc2c(c1)C(=O)N(CC(C)(C)C[N+](C)(C)CCCCCC[N+](C)(C)CC(C)(C)CN1C(=O)c3ccc(C)cc3C1=O)C2=O
7.21
C[N+](C)(CCCCCC[N+](C)(C)CCCN1C(=O)c2cccc3cccc(c23)C1=O)CCCN1C(=O)c2ccccc2C1=O
7.24
Cc1ccc2c(c1)C(=O)N(CCC[N+](C)(C)CCCCCC[N+](C)(C)CCCN1C(=O)c3ccccc3C1=O)C2=O
6.73
C[N+](C)(CCCCCC[N+](C)(C)CCCN1C(=O)c2nccnc2C1=O)CCCN1C(=O)c2ccccc2C1=O
6.25
CC(C)(CN1C(=O)c2ccccc2C1=O)C[N+](C)(C)CCCCCC[N+](C)(C)CCCN1C(=O)c2cccc3cccc(c23)C1=O
7.28
C[N+](C)(CCCCCC[N+](C)(C)CCCN1C(=O)c2cc(F)c(F)cc2C1=O)CCCN1C(=O)c2ccccc2C1=O
6.68
CC(C)(CN1C(=O)c2ccccc2C1=O)C[N+](C)(C)CCCCCC[N+](C)(C)CC(C)(C)CN1C(=O)c2ccccc2C1=O
7.08
C[N+](C)(CCCCCC[N+](C)(C)CCCN1C(=O)c2cc(Cl)c(Cl)cc2C1=O)CCCN1C(=O)c2ccccc2C1=O
7.08
Cc1ccc2c(c1)C(=O)N(CCC[N+](C)(C)CCCCCC[N+](C)(C)CCCN1C(=O)c3ccc(C)cc3C1=O)C2=O
7.08
Cc1ccc2c(c1)C(=O)N(CC(C)(C)C[N+](C)(C)CCCCCC[N+](C)(C)CCCN1C(=O)c3cccc4cccc(c34)C1=O)C2=O
7.48
CC(C)(CN1C(=O)c2ccccc2C1=O)C[N+](C)(C)CCCCCC[N+](C)(C)CCCN1C(=O)c2ccccc2C1=O
6.9
CC(C)(CN1C(=O)c2cccc3cccc(c23)C1=O)C[N+](C)(C)CCCCCC[N+](C)(C)CCCN1C(=O)c2cccc3cccc(c23)C1=O
8.07
CC(C)(C)c1ccc2c(c1)C(=O)N(CCC[N+](C)(C)CCCCCC[N+](C)(C)CCCN1C(=O)c3ccccc3C1=O)C2=O
7.25

---

Molecular target: Muscarinic acetylcholine receptor M2 (Sus scrofa) (UniProt P06199)
Sequence (P06199 whole entry): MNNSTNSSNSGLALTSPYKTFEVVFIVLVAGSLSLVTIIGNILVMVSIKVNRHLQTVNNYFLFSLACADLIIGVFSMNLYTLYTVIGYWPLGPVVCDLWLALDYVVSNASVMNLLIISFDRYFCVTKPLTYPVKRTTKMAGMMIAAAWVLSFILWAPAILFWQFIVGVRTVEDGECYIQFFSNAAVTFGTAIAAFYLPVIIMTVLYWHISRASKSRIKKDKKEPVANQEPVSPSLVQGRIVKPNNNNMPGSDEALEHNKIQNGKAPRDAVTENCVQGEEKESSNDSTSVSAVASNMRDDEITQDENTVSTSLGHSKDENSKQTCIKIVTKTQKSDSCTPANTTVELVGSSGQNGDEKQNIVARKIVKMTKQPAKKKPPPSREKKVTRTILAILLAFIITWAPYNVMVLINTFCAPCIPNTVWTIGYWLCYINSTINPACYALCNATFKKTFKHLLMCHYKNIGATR
Assay: Cooperativity factor pAlpha at porcine heart ventricle muscarinic acetylcholine receptor M2.
Measured endpoint: pAlpha

Recorded pAlpha, per entry:
C[N+](C)(CCCCCC[N+](C)(C)CCCN1C(=O)c2cc3ccccc3cc2C1=O)CCCN1C(=O)c2ccccc2C1=O
-0.47
C[N+](C)(CCCCCC[N+](C)(C)CCCN1C(=O)c2cc(F)c(F)cc2C1=O)CCCN1C(=O)c2cc(F)c(F)cc2C1=O
-0.39
C[N+](C)(CCCCCC[N+](C)(C)CCCN1C(=O)c2ccc(C(F)(F)F)cc2C1=O)CCCN1C(=O)c2ccccc2C1=O
-0.21
Cc1ccc2c(c1)C(=O)N(CC(C)(C)C[N+](C)(C)CCCCCC[N+](C)(C)CC(C)(C)CN1C(=O)c3ccc(C)cc3C1=O)C2=O
0.17
Cc1ccc2c(c1)C(=O)N(CCC[N+](C)(C)CCCCCC[N+](C)(C)CCCN1C(=O)c3cccc4cccc(c34)C1=O)C2=O
-0.22
Cc1ccc2c(c1)C(=O)N(CC(C)(C)C[N+](C)(C)CCCCCC[N+](C)(C)CCCN1C(=O)c3ccccc3C1=O)C2=O
0.19

I: CC(C)(CN1C(=O)c2ccccc2C1=O)C[N+](C)(C)CCCCCC[N+](C)(C)CC(C)(C)CN1C(=O)c2cccc3cccc(c23)C1=O
II: Cc1ccc2c(c1)C(=O)N(CCC[N+](C)(C)CCCCCC[N+](C)(C)CC(C)(C)CN1C(=O)c3ccccc3C1=O)C2=O
III: C[N+](C)(CCCCCC[N+](C)(C)CCCN1C(=O)c2cc(Cl)c(Cl)cc2C1=O)CCCN1C(=O)c2cc(Cl)c(Cl)cc2C1=O
IV: CC(C)(C)c1ccc2c(c1)C(=O)N(CCC[N+](C)(C)CCCCCC[N+](C)(C)CCCN1C(=O)c3ccc(C(C)(C)C)cc3C1=O)C2=O
List these items ordered by pAlpha, big to small. Put the labels in the requested order and list them out.
I, II, III, IV
